Data origin, for the record: PubChem BioAssay AID1259312

assay: survival after telomere uncapping, modulators, primary screen, cell-based (AID 1259312); conditions: HCT116 + Ad-hTR-mut, MTT, 5 d; at 10 µM;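 also: virus expresses mutant telomerase RNA that uncaps telomeres and kills cells; compound added 2 days after infection so exposure lasts 3 days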
In all, about 4,500 compounds went through this assay and about 200 (4.4%) were called active.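 The calls were made as follows: active = cell survival measured by absorbance rises more than 2.5-fold over infected cells without compound; inactive = the rest.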 Many of the other results were omitted from the sample, so actives are more common in it than they were.
Tick one outcome: TRUE (active), FALSE (inactive)

Worked examples, 5 molecules total:
molecule=CCOC(=O)C1CCN(C(=O)N2CCOCC2)CC1 classification=FALSE
molecule=COC(=O)Nc1ncc(CN2CCOCC2)s1 classification=FALSE
molecule=O=C(NCCC1=CCCCC1)C(=O)NCc1ccco1 classification=FALSE
molecule=NC(=O)c1c(NC(=O)CN2CCOCC2)sc2c1CCCC2 classification=FALSE
molecule=O=C1c2ccc([N+](=O)[O-])cc2C(=O)N1CNc1ccc2c(c1)oc1ccccc12 classification=TRUE

query: Outcome? CCOC(=O)CN(C1=NS(=O)(=O)c2ccccc21)c1ccccc1
result: FALSE

query: Outcome? O=S(=O)(c1ccccc1)N1CCN(C(c2ccccc2)c2ccccc2)CC1
result: TRUE

query: Outcome? COc1ccc(CC2=CN(C)CC3=C2OC(N)=C(C#N)C3c2ccc(OC)c(OC)c2)cc1OC (stereo unspecified)
result: FALSE

query: Outcome? CCc1ccc(C(C2C(=O)CC(C)(C)CC2=O)C2C(=O)CC(C)(C)CC2=O)s1
result: FALSE

query: Outcome? Brc1csc(-c2cc(Br)cs2)c1
result: FALSE

query: Outcome? O=S(=O)(c1ccccc1)N1CCN(CCO)CC1
result: FALSE

query: Outcome? O=C(COc1ccccc1)N=Nc1c(O)[nH]c2ccccc12
result: FALSE

query: Outcome? CC1=C(C(=O)OCC2CCCO2)C(c2ccc(C)o2)C2=C(CC(C)(C)CC2=O)N1 (stereo unspecified)
result: TRUE

query: Outcome? CC1(C)[C@H]2CCC1(CS(=O)(=O)N(C1CCCCC1)C1CCCCC1)C(O)C2 (stereo partly specified)
result: FALSE

query: Outcome? Cc1nccn1CCC(=O)O
result: TRUE

query: Outcome? CC(=O)N1CCCc2cc(S(=O)(=O)NC(C)(C)C)ccc21
result: FALSE

query: Outcome? CCCN1CC=C2C(C#N)=C(N)C(C#N)(C#N)[C@H](c3ccsc3)[C@H]2C1
result: TRUE

query: Outcome? Cc1ccn(-c2ccc([N+](=O)[O-])cc2)n1
result: FALSE

query: Outcome? O=S(=O)(Nc1cccc2ccccc12)N1CCCCC1
result: FALSE

query: Outcome? CC(C)N1CC=C2C(C#N)=C(N)C(C#N)(C#N)C(c3ccc(F)cc3)[C@H]2C1 (stereo partly specified)
result: TRUE

query: Outcome? CCCOC(=O)C1=C(C)NC2=C(C(=O)CC(C)(C)C2)C1c1ccc(C)o1 (stereo unspecified)
result: FALSE

query: Outcome? NS(=O)(=O)c1ccc(N=Cc2cccs2)cc1
result: TRUE

query: Outcome? CSC(=Nc1ccc(C)c(C)c1)NC#N
result: TRUE

query: Outcome? CCc1sc(C(C2C(=O)CC(C)(C)CC2=O)C2C(=O)CC(C)(C)CC2=O)cc1Br
result: FALSE

query: Outcome? COC(=O)/C(C#N)=C\c1ccc(C)o1
result: FALSE

query: Outcome? N#CC1=C(N)C(C#N)(C#N)[C@@H](c2cccc(Br)c2)[C@@H]2CN(Cc3ccccc3)CC=C12
result: FALSE

query: Outcome? CN(C)c1ccc(C=Nc2ccc3[nH]c(=O)[nH]c3c2)cc1[N+](=O)[O-]
result: FALSE

query: Outcome? O=C(Cc1cccs1)NCCN1CCOCC1
result: FALSE

query: Outcome? COc1ccc(C=Nc2nonc2N)cc1
result: FALSE

query: Outcome? OC(c1ccccc1)c1nc2ccccc2[nH]1 (stereo unspecified)
result: FALSE

query: Outcome? CC1CC2=C(C(=O)O1)C(c1cccs1)C(C#N)=C(N)O2 (stereo unspecified)
result: TRUE
